B1: H2-Kb / Ed33 (parent complex)
chain 1: SQLAEENSWALSVHEGESVTVNCSYKTSITALQWYRQKSGKGPAQLILIRSNEREKRNGRLRATLDTSSQSSSLSITATRCEDTAVYFCATDHNNAGAKLTFGGGTRLTVRP
chain 2: DAGVTQTPRHEVAEKGQTIILKCEPVSGHNDLFWYRQTKIQGLELLSYFRSKSLMEDGGAFKDRFKAEMLNSSFSTLKIQPTEPKDSAVYLCASSLYTNQAPLFGEGTRLSVL
chain 3: not shown
chain 4: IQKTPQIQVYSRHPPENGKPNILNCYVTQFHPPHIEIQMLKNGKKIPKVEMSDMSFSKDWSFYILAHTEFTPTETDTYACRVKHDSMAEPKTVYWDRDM
chain 5: SIINFEKL

variants of: B1; assay: % of reporter cells activated (NFAT-GFP), raw; further: test concentration or dose not given here
Below, each of the variants is paired with its reported ratio to parent value.

Solved cases (4 shown):
# Variant code, ratio to parent
rows = [
    ("chain 5 I3W", 0.836),
    ("chain 5 F5W", 0.968),
    ("chain 5 S1I", 0.0715),
    ("chain 5 N4L", 0.428),
]

Exercise: May I ask what ratio to parent has been recorded for chain 5 F5C ?
Solution: 1.05

Exercise: May I ask what ratio to parent has been recorded for chain 5 S1F ?
Solution: 0.3

Exercise: May I ask what ratio to parent has been recorded for chain 5 I2Q ?
Solution: 0.918

Exercise: May I ask what ratio to parent has been recorded for chain 5 F5Y ?
Solution: 1.04

Exercise: May I ask what ratio to parent has been recorded for chain 5 I2E ?
Solution: 1.03
